# Tested System: NAMPT (Homo sapiens, UniProt P43490)
# Construct: purchased Abcam ab221819
# Sequence (P43490 whole entry): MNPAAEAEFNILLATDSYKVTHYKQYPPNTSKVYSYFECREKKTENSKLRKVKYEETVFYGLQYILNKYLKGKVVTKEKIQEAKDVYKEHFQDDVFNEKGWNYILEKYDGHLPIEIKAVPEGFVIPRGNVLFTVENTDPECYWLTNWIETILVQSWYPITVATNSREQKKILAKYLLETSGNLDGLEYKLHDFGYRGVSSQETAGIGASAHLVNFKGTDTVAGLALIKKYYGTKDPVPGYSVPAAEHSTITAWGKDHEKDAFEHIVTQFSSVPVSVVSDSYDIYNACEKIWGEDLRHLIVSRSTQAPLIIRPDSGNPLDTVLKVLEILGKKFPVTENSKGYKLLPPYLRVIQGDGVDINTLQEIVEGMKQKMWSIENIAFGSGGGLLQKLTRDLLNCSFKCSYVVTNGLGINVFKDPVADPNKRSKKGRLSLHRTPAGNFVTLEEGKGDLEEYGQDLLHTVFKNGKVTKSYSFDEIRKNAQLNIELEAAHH
# Procedure Text: NAMPT Activity Assay (Abcam #ab221819)
# Assay type: biochemical
# Setup Conditions: purified NAMPT, percent inhibition from OD450 nm; compound concentration not given
Quantity Name: NAMPT Inhibition Code*

INSERT INTO measurements (compound, test_value) VALUES
  ('CC(=O)N(CC1CC1)c1ccc(-c2ccc(C(=O)NCCCc3cn[nH]c3)cn2)cc1F [I-T2302]', 'C (C = ≥66% inhibition)'),
  ('CC(=O)N(CC(F)F)c1ccc(-c2ccc(NC(=O)C3CC3c3cccnc3)cn2)cc1Cl (centres unmarked) [I-T2294]', 'C (C = ≥66% inhibition)'),
  ('CC(=O)N(CC1CC1)c1ccc(-c2ccc(C(=O)NCCc3cccnc3)cn2)cc1Cl [I-T2130]', 'C (C = ≥66% inhibition)'),
  ('CC(=O)N(CC1CC1)c1ccc(-c2ccc(C(=O)NCCN3CCCCC3)cn2)cc1Cl [I-T2339]', 'A (*A = <33% inhibition)'),
  ('CC(=O)N(CC1CC1)c1ccc(-c2ccc(C(=O)N3Cc4ccncc4C3)cn2)cc1Cl [I-T2138]', 'A (*A = <33% inhibition)'),
  ('CC(=O)N(CC(F)F)c1ccc(-c2ccc(C(=O)NCCc3cn[nH]c3)cn2)cc1Cl [I-T2114]', 'A (*A = <33% inhibition)'),
  ('CC(=O)N(CC1CC1)c1ccc(-c2ccc(C(=O)NCCC3CCCCC3)cn2)cc1Cl [I-T2348]', 'C (C = ≥66% inhibition)'),
  ('CC(=O)N(CC1CC1)c1ccc(-c2ccc(C(=O)NCC3CCCCO3)cn2)cc1Cl (centres unmarked) [I-T2340]', 'A (*A = <33% inhibition)');

The reported numbers originate from patent US20240376074A1.
